Item-by-item account of % Inhibition Skp2 @ 10 µM
biological target: Skp2 (UniProt Q13309 1-424, limits assumed); experiment: cell-based or functional assay
Sequence (Q13309 whole entry): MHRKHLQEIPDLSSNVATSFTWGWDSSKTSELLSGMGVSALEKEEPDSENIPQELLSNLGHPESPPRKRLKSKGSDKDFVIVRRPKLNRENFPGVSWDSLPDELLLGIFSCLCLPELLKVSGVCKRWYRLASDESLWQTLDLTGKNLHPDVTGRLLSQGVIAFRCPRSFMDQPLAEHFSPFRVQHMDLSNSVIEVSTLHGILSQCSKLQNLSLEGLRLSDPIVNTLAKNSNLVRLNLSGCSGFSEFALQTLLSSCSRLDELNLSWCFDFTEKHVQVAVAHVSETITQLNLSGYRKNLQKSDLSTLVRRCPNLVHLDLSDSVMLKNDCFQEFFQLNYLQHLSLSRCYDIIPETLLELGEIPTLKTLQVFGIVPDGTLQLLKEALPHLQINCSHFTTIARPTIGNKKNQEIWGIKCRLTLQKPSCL
Starred links: 1 amine or outer side, 2 acyl side, 3 side chain; linkers in the order of their positions; H or OH if unused. Non-standard residues stand in square brackets, D forms with d. *: point of attachment. Phe(4-NO2) = N[C@@H](Cc1ccc([N+](=O)[O-])cc1)C(=O)O; 3,4‑(MeO)2‑PhSO2 = COc1ccc(S(=O)(=O)*)cc1OC; 4‑(BuO)‑PhSO2 = CCCCOc1ccc(S(=O)(=O)*)cc1; E(Me) = COC(=O)CC[C@H](N[*:1])C(=O)[*:2]; Phe(3-F) = N[C@@H](Cc1cccc(F)c1)C(=O)O; 1Nal = N[C@@H](Cc1cccc2ccccc12)C(=O)O; Suc = O=C(CCC(=O)[*:2])[*:1]; Tos = Cc1ccc(S(=O)(=O)*)cc1; Propionyl = CCC(=O)*
Lab book: enter the figure in %, no units written.

Past entries and their recorded results:
{4‑(BuO)‑PhSO2}-[dD]EG[Phe(3-F)]WE-NH2 (also called UBP030) [4-(BuO)-PhSO2-dEGF(3F)WE-NH2]: 0
Suc-EG[Phe(4-NO2)][1Nal]E-NH2 (SMILES NC(=O)[C@H](CCC(=O)O)NC(=O)[C@H](Cc1cccc2ccccc12)NC(=O)[C@H](Cc1ccc([N+](=O)[O-])cc1)NC(=O)CNC(=O)[C@H](CCC(=O)O)NC(=O)CCC(=O)O) [Suc-EGF(4NO2)1NalE-NH2]: 12
Tos-DEG[Phe(3-F)]WE-NH2 (SMILES Cc1ccc(S(=O)(=O)N[C@@H](CC(=O)O)C(=O)N[C@@H](CCC(=O)O)C(=O)NCC(=O)N[C@@H](Cc2cccc(F)c2)C(=O)N[C@@H](Cc2c[nH]c3ccccc23)C(=O)N[C@@H](CCC(=O)O)C(N)=O)cc1, also called UBP024) [Ts-DEGF(3F)WE-NH2]: 0
Tos-[dD]EG[Phe(3-F)]W[E(Me)]-NH2 (also called UBP032) [Ts-dEGF(3F)WE(Me)-NH2]: 0
{3,4‑(MeO)2‑PhSO2}-[dD]EG[Phe(3-F)]WE-NH2 (SMILES COc1ccc(S(=O)(=O)N[C@H](CC(=O)O)C(=O)N[C@@H](CCC(=O)O)C(=O)NCC(=O)N[C@@H](Cc2cccc(F)c2)C(=O)N[C@@H](Cc2c[nH]c3ccccc23)C(=O)N[C@@H](CCC(=O)O)C(N)=O)cc1OC, also called UBP029) [3,4-(MeO)2-PhSO2-dEGF(3F)WE-NH2]: 19

[ask] Sample Propionyl-[dD]EG[Phe(3-F)]WE-NH2 (also called UBP019) [Et(CO)-dEGF(3F)WE-NH2] — what was its % Inhibition Skp2 @ 10 µM?
[reply] 1
